All values here come from patent US20160159919A1.

target: T1, soluble human EREG fragment having a mature EGF domain structure (R&D Systems cat. no. 1195-EP/CF) (human, UniProt O14944 63-108); assay: competitive ELISA on coated soluble human EREG fragment
T1 construct: bought; coated on ELISA plates; also called human epiregulin; recombinant human Epiregulin
T1 sequence (O14944 63-108 limits assumed): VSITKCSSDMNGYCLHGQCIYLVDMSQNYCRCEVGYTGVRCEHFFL
experimental_readout: binding result

binder	assay_value
H42-G1d/LB-k (antibody, human IgG1, kappa, V domains shown) VH: QDQLVQSGAEVKKPGASVKVSCKASGFNIKDTYIQWVRQAPGQGLEWMGRIDPLNGNTKYKPKFQGRVTITADTSTNTAYMELSSLRSEDTAVYYCVRSGTLFDFWGQGTLVTVSS VL: DIQMTQSPSSLSASVGDRVTITCKASQDIHKYIAWYQQKPGQAPRLLIQYTSTLQPGVPSRFSGSGSGTDYTFTISSLQPEDIATYYCLQYDNLRTFGGGTKVEIKR	binds
H25-G1d/LB-k (antibody, human IgG1, kappa, V domains shown) VH: QDQLVQSGAEVKKPGASVKVSCKASGFNIKDTYIQWVRQAPGQGLEWMGRIDPLNGNTKYVPKFQGRVTITADTSTNTAYMELSSLRSEDTAVYYCVRSGTSFDFWGQGTLVTVSS VL: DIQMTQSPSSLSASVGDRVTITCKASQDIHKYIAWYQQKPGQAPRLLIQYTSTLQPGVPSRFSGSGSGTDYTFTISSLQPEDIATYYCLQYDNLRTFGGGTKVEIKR	binds
